# assayed_system: Mitogen-activated protein kinase 10 (Homo sapiens) (UniProt P53779)
# Sequence (P53779 whole entry, looked up): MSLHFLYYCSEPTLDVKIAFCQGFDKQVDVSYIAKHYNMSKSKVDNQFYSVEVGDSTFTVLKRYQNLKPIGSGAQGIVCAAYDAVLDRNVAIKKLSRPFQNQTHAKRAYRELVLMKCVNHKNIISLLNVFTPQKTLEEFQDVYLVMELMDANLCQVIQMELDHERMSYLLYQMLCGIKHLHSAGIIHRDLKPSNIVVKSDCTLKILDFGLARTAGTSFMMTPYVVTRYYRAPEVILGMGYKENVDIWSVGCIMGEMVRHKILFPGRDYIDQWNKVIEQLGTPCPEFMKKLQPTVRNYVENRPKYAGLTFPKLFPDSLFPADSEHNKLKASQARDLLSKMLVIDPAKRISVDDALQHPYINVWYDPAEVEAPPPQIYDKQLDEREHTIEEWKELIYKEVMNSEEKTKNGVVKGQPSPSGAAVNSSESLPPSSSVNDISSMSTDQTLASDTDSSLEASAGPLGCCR
# test_name: JNK3 kinase activity inhibitors, primary screen, biochemical, human, purified enzyme (AID 746);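 note: 0% = DMSO and 100% = reference inhibitor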
# recorded_conditions: HTS, at 8 µM, active compounds read high
Out of some 60,000 compounds screened, about 370 (0.62%) were called active. Shown is part of a subset that was picked to be rich in actives.
measurement_kind: inhibition (%)
Value expressed in %; do not type the unit.

molecule	inhibition / %
CC(=O)c1sc2nc(SCC(=O)N3CCCCC3)[nH]c(=O)c2c1C	19.7
CCOC(=O)c1ccc(COC(=O)c2cc(=O)[nH]c3ccccc23)o1	-6.13
CCOC(=O)CNC(=O)CN1C(=O)CCSc2ccccc21	-4.85
COc1ccc(CCNC(=O)CCn2c(=O)oc3ccccc32)cc1OC	-2.91
CC(=O)NC(C)(C)C1CC=C(C)/C(=N\O)C1 (stereo not drawn)	0.98
Cc1c(C(=O)NCC2CCCO2)sc2nc(-c3ccccc3)cn12 (stereo not drawn)	-3.26
CCCC(=O)NC(C)C(c1cccs1)N1CCN(c2ccccc2)CC1 (stereo not drawn)	0.41
CC1=C(C)CC2C(=O)N(c3cccc4ccccc34)C(=O)C2C1 (stereo not drawn)	0
Cc1cc(C(=O)O)c(S(C)(=O)=O)s1	0.82
CC(=NCc1ccco1)C1=C(O)c2ccccc2C1=O	32.9

Enquiry: What value of inhibition has been recorded for this entry: COc1ccc(-n2nc3c(c2NC(=O)Cc2cccc(C)c2)CS(=O)C3)cc1 (stereo not drawn)
Return: 1.83

Enquiry: Also, `C=C(C)Cn1c(N2CCCC2)nc2c1c(=O)[nH]c(=O)n2C` please.
Return: 2.48

Enquiry: Also, `C=CCNC(=O)CSc1nc2sc(C)c(C)c2c(=O)[nH]1` please.
Return: -0.43

Enquiry: Also, `CCOC(=O)c1cc2sccc2n1Cc1ccc(C#N)cc1` please.
Return: 4.65

Enquiry: Also, `Cc1ccccc1NC(=O)c1cnn(-c2ccccc2)c1NC(=O)c1ccco1` please.
Return: -3.45

Enquiry: Also, `CCOC(=O)CSc1nnc(NC(=O)c2cccc(S(=O)(=O)N3CCCCC3)c2)s1` please.
Return: -2.01

Enquiry: Also, `O=P(c1cccs1)(c1cccs1)c1cccs1` please.
Return: -3.85

Enquiry: Also, `Fc1ccc(OCc2nn3c(Cn4nnc5ccccc54)nnc3s2)cc1` please.
Return: -2.42

Enquiry: Also, `COc1cccc2c(=O)n(CC(=O)N3CCCCCC3)ccc12` please.
Return: 1.14

Enquiry: Also, `COC(=O)c1[nH]c2ccccc2c1NS(=O)(=O)c1ccc(OC)cc1OC` please.
Return: 2.86

Enquiry: Also, `NC(=O)C1(N2CCCCC2)CCN(C(=O)c2ccc(C#Cc3ccccc3)o2)CC1` please.
Return: -2.13

Enquiry: Also, `CCOc1cc(C(=O)Nc2ncccn2)cc(OCC)c1OCC` please.
Return: -1.81

Enquiry: Also, `Cc1cc(C)c(S(=O)(=O)NCCCN2CCOCC2)cc1Br` please.
Return: -5.01

Enquiry: Also, `O=C(Nc1cc(C(F)(F)F)ccc1Cl)c1cc(C2CC2)on1` please.
Return: 4.08

Enquiry: Also, `Cc1c(CN2CCC(C)CC2)c(=O)n(-c2ccccc2)n1C` please.
Return: 0.5

Enquiry: Also, COC(=O)C(CC(=O)Nc1cc(C)ccc1C)Nc1ccccc1OC (stereo not drawn) please.
Return: -2.33

Enquiry: Also, `CCn1c(SCC(=O)c2ccc(Cl)s2)nnc1-c1cccs1` please.
Return: -1.37

Enquiry: Also, O=C1C(C=NCC2CCCO2)=C(O)c2ccccc21 (stereo not drawn) please.
Return: 3.41

This collection of values is drawn from PubChem BioAssay AID746.
